- tested-on: Pantothenate synthetase (Mycobacterium tuberculosis (strain ATCC 25618 / H37Rv))
- method-summary: Coupled enzyme confirmation of inhibitors against recombinant Mtb PanC (AID 375);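 further: 0% = full reaction with vehicle and 100% = no enzyme background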
- experimental-parameters: coupled enzyme assay; at 10 µM, hits give high values
value-type: inhibition (%)
State the answer as a number, implicitly in %.

In: Identify measured inhibition obtained with Pantothenate synthetase (Mycobacterium tuberculosis (strain ATCC 25618 / H37Rv)) for `CCOC(=O)N1CCN(C(=O)CCc2ccc(S(=O)(=O)NCCc3ccccc3)cc2)CC1` .
Out: 3

In: Identify measured inhibition obtained with Pantothenate synthetase (Mycobacterium tuberculosis (strain ATCC 25618 / H37Rv)) for `CC12CCC(C(=O)N3CCN(C(=O)C45CCC(C)(C(=O)O4)C5(C)C)CC3)(OC1=O)C2(C)C` .
Out: 0

In: Identify measured inhibition obtained with Pantothenate synthetase (Mycobacterium tuberculosis (strain ATCC 25618 / H37Rv)) for `COc1ccc(CCNS(=O)(=O)c2ccc3c(c2)CCN3C(=O)CCC(=O)O)cc1OC` .
Out: 0

In: Identify measured inhibition obtained with Pantothenate synthetase (Mycobacterium tuberculosis (strain ATCC 25618 / H37Rv)) for `Nc1c(C(=O)NCCc2ccccc2)nnn1Cc1ccccc1` .
Out: 0

In: Identify measured inhibition obtained with Pantothenate synthetase (Mycobacterium tuberculosis (strain ATCC 25618 / H37Rv)) for Cc1ccc2c(c1)C1CCCC3C1N2CC(=O)N3Cc1ccccc1 (stereo not given) .
Out: 0

In: Identify measured inhibition obtained with Pantothenate synthetase (Mycobacterium tuberculosis (strain ATCC 25618 / H37Rv)) for `O=c1[nH]c(N2CCCCC2)nc2c1CCCC2` .
Out: 0

In: Identify measured inhibition obtained with Pantothenate synthetase (Mycobacterium tuberculosis (strain ATCC 25618 / H37Rv)) for `Cn1c2c(c(=O)n(C)c1=O)CN(CCCN1CCOCC1)CN2` .
Out: 0

In: Identify measured inhibition obtained with Pantothenate synthetase (Mycobacterium tuberculosis (strain ATCC 25618 / H37Rv)) for `CCc1nnc(NC(=O)CSc2nc(-c3ccc(OC)cc3)ns2)s1` .
Out: 0

In: Identify measured inhibition obtained with Pantothenate synthetase (Mycobacterium tuberculosis (strain ATCC 25618 / H37Rv)) for `COc1ccc(C(=O)C(C)(C)NO)cc1` .
Out: 0

In: Identify measured inhibition obtained with Pantothenate synthetase (Mycobacterium tuberculosis (strain ATCC 25618 / H37Rv)) for `O=C(c1ccccc1Cl)N1CCc2ccccc2C1` .
Out: 0

In: Identify measured inhibition obtained with Pantothenate synthetase (Mycobacterium tuberculosis (strain ATCC 25618 / H37Rv)) for `O=c1ccc2cc3c([nH]c4ccc(Br)cc43)oc-2c1O` .
Out: 0

In: Identify measured inhibition obtained with Pantothenate synthetase (Mycobacterium tuberculosis (strain ATCC 25618 / H37Rv)) for `Cc1nc(SCC(=O)N2CCC(C(N)=O)CC2)n[nH]1` .
Out: 0

In: Identify measured inhibition obtained with Pantothenate synthetase (Mycobacterium tuberculosis (strain ATCC 25618 / H37Rv)) for `CCCCCc1c(O)c2ccccc2[nH]c1=O` .
Out: 0

In: Identify measured inhibition obtained with Pantothenate synthetase (Mycobacterium tuberculosis (strain ATCC 25618 / H37Rv)) for `COc1ccc(-n2c(SCc3ccc(C#N)cc3)nnc2-c2ccccn2)cc1` .
Out: 0

In: Identify measured inhibition obtained with Pantothenate synthetase (Mycobacterium tuberculosis (strain ATCC 25618 / H37Rv)) for `O=C(Nc1nncs1)c1ccccc1NS(=O)(=O)c1cccs1` .
Out: 0

In: Identify measured inhibition obtained with Pantothenate synthetase (Mycobacterium tuberculosis (strain ATCC 25618 / H37Rv)) for `O=C(C1CC1)N1CCc2cc(S(=O)(=O)N(CCO)Cc3ccccc3)ccc21` .
Out: 0

In: Identify measured inhibition obtained with Pantothenate synthetase (Mycobacterium tuberculosis (strain ATCC 25618 / H37Rv)) for `c1ccc(CSc2nnc(-c3cccs3)n2Cc2ccco2)cc1` .
Out: 0

In: Identify measured inhibition obtained with Pantothenate synthetase (Mycobacterium tuberculosis (strain ATCC 25618 / H37Rv)) for CCc1[nH]nc2c1C(c1cccc(OC(=O)N3CCOCC3)c1)C(C#N)=C(N)O2 (stereo not given) .
Out: 1

In: Identify measured inhibition obtained with Pantothenate synthetase (Mycobacterium tuberculosis (strain ATCC 25618 / H37Rv)) for `O=C(CCS(=O)(=O)c1cccc2nsnc12)N1CCN(Cc2ccc3c(c2)OCO3)CC1` .
Out: 0

In: Identify measured inhibition obtained with Pantothenate synthetase (Mycobacterium tuberculosis (strain ATCC 25618 / H37Rv)) for `c1ccc(CNC2=NCCC2)nc1` .
Out: 0

In: Identify measured inhibition obtained with Pantothenate synthetase (Mycobacterium tuberculosis (strain ATCC 25618 / H37Rv)) for CN(C)c1ccc(/C=C/C(O)=C2/C(=O)N(C)C3(C)CC2c2ccccc2O3)cc1 (stereo not given) .
Out: 0

In: Identify measured inhibition obtained with Pantothenate synthetase (Mycobacterium tuberculosis (strain ATCC 25618 / H37Rv)) for `COC(=O)c1sc(NC(=O)COc2ccccc2OC)nc1C` .
Out: 0

In: Identify measured inhibition obtained with Pantothenate synthetase (Mycobacterium tuberculosis (strain ATCC 25618 / H37Rv)) for `Nc1nc(-c2ccc(Cl)cc2)nn1C(=O)c1cccnc1` .
Out: 0

In: Identify measured inhibition obtained with Pantothenate synthetase (Mycobacterium tuberculosis (strain ATCC 25618 / H37Rv)) for `Cc1cc(C)n2nc(SCC(=O)N(C)Cc3ccccc3)nc2n1` .
Out: 3

In: Identify measured inhibition obtained with Pantothenate synthetase (Mycobacterium tuberculosis (strain ATCC 25618 / H37Rv)) for `COc1ccc(C(=O)NCCC(C)C)cc1S(=O)(=O)N1CCOCC1` .
Out: 9

In: Identify measured inhibition obtained with Pantothenate synthetase (Mycobacterium tuberculosis (strain ATCC 25618 / H37Rv)) for C=CCN1C(=O)C2(C(C#N)=C(N)Oc3n[nH]c(CCC)c32)c2ccccc21 (stereo not given) .
Out: 0

In: Identify measured inhibition obtained with Pantothenate synthetase (Mycobacterium tuberculosis (strain ATCC 25618 / H37Rv)) for `Cc1ccc(C)c(-n2c(CNC(=O)c3ccco3)nnc2SCC(=O)Nc2nnc(C)s2)c1` .
Out: 0

In: Identify measured inhibition obtained with Pantothenate synthetase (Mycobacterium tuberculosis (strain ATCC 25618 / H37Rv)) for CC1=CC=CC2=NC(=O)CC(C)(C(=O)N(CC(=O)NC(C)C)C3CCCC3)N12 (stereo not given) .
Out: 4

In: Identify measured inhibition obtained with Pantothenate synthetase (Mycobacterium tuberculosis (strain ATCC 25618 / H37Rv)) for `Cn1c(=O)c2c(nc(NCCCO)n2Cc2cccc(Br)c2)n(C)c1=O` .
Out: 3

In: Identify measured inhibition obtained with Pantothenate synthetase (Mycobacterium tuberculosis (strain ATCC 25618 / H37Rv)) for CC1(C)S[C@@H]2[C@H](NC(=O)C(C(=O)O)c3ccccc3)C(=O)N2[C@H]1C(=O)O (stereo not given in full) .
Out: 0

In: Identify measured inhibition obtained with Pantothenate synthetase (Mycobacterium tuberculosis (strain ATCC 25618 / H37Rv)) for `Cc1nnc(NC2CCCCC2)[nH]c1=O` .
Out: 3

In: Identify measured inhibition obtained with Pantothenate synthetase (Mycobacterium tuberculosis (strain ATCC 25618 / H37Rv)) for CCC(NS(=O)(=O)c1ccc(C)cc1)C(=O)N1CCC2(O)CCCCC2C1 (stereo not given) .
Out: 6

In: Identify measured inhibition obtained with Pantothenate synthetase (Mycobacterium tuberculosis (strain ATCC 25618 / H37Rv)) for `CCCN(CCC)CCCNS(=O)(=O)c1ccc2c(c1)oc(=O)n2C` .
Out: 0

In: Identify measured inhibition obtained with Pantothenate synthetase (Mycobacterium tuberculosis (strain ATCC 25618 / H37Rv)) for `O=C(CC1CCCCC1)NCc1ccccn1` .
Out: 0

In: Identify measured inhibition obtained with Pantothenate synthetase (Mycobacterium tuberculosis (strain ATCC 25618 / H37Rv)) for `COc1ccc(CN(C(=O)CN2C(=O)COc3ccccc32)C2CCCC2)c(OC)c1` .
Out: 0

In: Identify measured inhibition obtained with Pantothenate synthetase (Mycobacterium tuberculosis (strain ATCC 25618 / H37Rv)) for CCOC(=O)C1=C(CSc2nc(C)cc(C)c2C#N)OC(N)=C(C#N)C1c1cccs1 (stereo not given) .
Out: 2

In: Identify measured inhibition obtained with Pantothenate synthetase (Mycobacterium tuberculosis (strain ATCC 25618 / H37Rv)) for `Cc1cccc(-c2nnn(CC/C(N)=N/O)n2)c1` .
Out: 3

In: Identify measured inhibition obtained with Pantothenate synthetase (Mycobacterium tuberculosis (strain ATCC 25618 / H37Rv)) for `CCN(CC)C(=O)c1ccc(NS(=O)(=O)c2ccccc2)cc1` .
Out: 0

In: Identify measured inhibition obtained with Pantothenate synthetase (Mycobacterium tuberculosis (strain ATCC 25618 / H37Rv)) for `O=C(CCCn1c(=O)[nH]c2ccsc2c1=O)N1CCN(c2ccccn2)CC1` .
Out: 3

In: Identify measured inhibition obtained with Pantothenate synthetase (Mycobacterium tuberculosis (strain ATCC 25618 / H37Rv)) for `CCOc1ccc(Oc2nc(Nc3ccc(C)cc3)nc(N(C)C)n2)nn1` .
Out: 0
